system: Mycobacterium tuberculosis; assay: Cornell M. t heat shock assay; assay type: functional, organism-based; parameters: dose or concentration left out as unconfirmed; further: in the data most compounds retested in dose-response had high values
Out of some 69,000 compounds screened, about 950 (1.4%) showed an effect of 50% or more. The full list was thinned out, with strong results kept by preference.

| COMPOUND | ASSAYED_SYSTEM | Percent Effect (%) |
| --- | --- | --- |
| Fc1cnc(N2CCCC3(COCCN(c4nccs4)C3)C2)nc1.O=C(O)C(F)(F)F.O=C(O)C(F)(F)F (stereo unspecified) | Mycobacterium tuberculosis | 4.049 |
| CCn1c(NCc2ccccn2)nc2c(C)nn(C)c2c1=O | Mycobacterium tuberculosis | -10.12 |
| Cc1ccc(CCNc2ncnc3sc4c(c23)CCNC4)o1 | Mycobacterium tuberculosis | 98.95 |
| O=C1CCNc2ncc(-c3ccc(Cl)cc3)cc2CN1C1CC1 | Mycobacterium tuberculosis | 53.07 |
| c1ccc2c(c1)CN(c1ncnc3sc4c(c13)CCNC4)CCO2 | Mycobacterium tuberculosis | 1.883 |
| c1ccc(OCCNc2ncnc3sc4c(c23)CCNC4)cc1 | Mycobacterium tuberculosis | 56.72 |
| O=C1CCNc2ncc(-c3cccc(Cl)c3)cc2CN1C1CC1 | Mycobacterium tuberculosis | 61.09 |
| c1csc(N2CCCN(Cc3noc(C4CC4)n3)CC2)n1 | Mycobacterium tuberculosis | -6.96 |
| Cc1ncc(CN2CCCN(Cc3noc(C4CC4)n3)CC2)s1 | Mycobacterium tuberculosis | 6.148 |
| Oc1ccccc1N1CCN(c2ncnc3sc4c(c23)CCNC4)CC1 | Mycobacterium tuberculosis | -21.81 |
| COc1ccc(-c2cnc3c(c2)CN(C2CC2)C(=O)CCN3)cc1 | Mycobacterium tuberculosis | 36.55 |
| O=C(O)C(F)(F)F.O=C(O)C(F)(F)F.O=C(O)C(F)(F)F.c1cncc(CN2CCC3(COCCN(C4CCOCC4)C3)C2)c1 (stereo unspecified) | Mycobacterium tuberculosis | -18.23 |
| CCc1nc(CN2CCCN(C(=O)c3cn[nH]c3C)CC2)cs1 | Mycobacterium tuberculosis | 14.33 |
| Cc1ccc(N2CCO[C@H]3CN(Cc4cccnc4)C[C@H]32)nn1.O=C(O)C(F)(F)F.O=C(O)C(F)(F)F.O=C(O)C(F)(F)F | Mycobacterium tuberculosis | -30.09 |
| CCO[C@@H]1CC[C@H]2[C@H]1OCCN2Cc1ccoc1.O=C(O)C(F)(F)F | Mycobacterium tuberculosis | 1.857 |
| Cc1nonc1OCCNc1ncnc2sc3c(c12)CCNC3 | Mycobacterium tuberculosis | 19.66 |
| Cc1cc(C[C@@H]2COC[C@H]2NCc2ccc(Cl)c(Cl)c2)on1.O=C(O)CC(O)(CC(=O)O)C(=O)O | Mycobacterium tuberculosis | -20.39 |
| CN(C)CCOCC1CN(Cc2cccs2)Cc2ccnn2C1.O=C(O)C(F)(F)F.O=C(O)C(F)(F)F.O=C(O)C(F)(F)F (stereo unspecified) | Mycobacterium tuberculosis | -22.31 |
| O=C([C@@H]1CCCO1)N1CCOCC2(CCN(Cc3cccnc3)C2)C1 (stereo partly specified) | Mycobacterium tuberculosis | 51.35 |
| COc1ccc(OCCN2CCC(N3CCNC3=O)CC2)cc1 | Mycobacterium tuberculosis | 47.29 |
| Cn1cc(CN2CCC(F)(F)C3(CCN(c4ncccn4)C3)C2)cn1.O=C(O)C(F)(F)F.O=C(O)C(F)(F)F (stereo unspecified) | Mycobacterium tuberculosis | -18.65 |

====

test system: Mycobacterium tuberculosis; assay: Cornell M. t heat shock assay; type: functional, organism-based; set-up: dose or concentration left out as unconfirmed; further: in the data most compounds retested in dose-response had high values
About 950 (1.4%) of roughly 69,000 compounds showed an effect of 50% or more. This is one part of a sample in which strong results are shown more often than they occur.
Catalogue of compounds with associated Percent Effect
REPORTED_METRIC: Percent Effect (%)

| COMPOUND | REPORTED_METRIC | READOUT_NUMBER |
| --- | --- | --- |
| CCN1CCC2(CC1)CC(NC(=O)c1csnn1)c1ccccc1O2.O=C(O)C(F)(F)F (configuration not stated) | Percent Effect | 54.1 |
| Cc1cccc(CC(=O)N2CCN(c3nccn3C)CC2)c1.Cl | Percent Effect | -13.18 |
| Cl.Fc1cccc(F)c1Cn1c(C2CCNCC2)cc2cccnc21 | Percent Effect | -5.947 |
| Cc1ccc(N2CC[C@H]3O[C@H](C(=O)NCc4ccco4)CC[C@H]32)nn1.O=C(O)C(F)(F)F | Percent Effect | -36.19 |
| O=C(c1cc(-c2ccn(CC3CC3)n2)n2ccccc12)N1CCCO1 | Percent Effect | 3.9 |
| O=C(O)c1cc(-c2ccn(CC3CC3)n2)n2ccccc12 | Percent Effect | -0.3144 |
| OC1(c2ccccc2F)CCN(Cc2ccccc2N2CCCC2)CC1 | Percent Effect | -5.486 |
| O=c1oc2ccccc2n1CCN(CC1CCOC1)C1CC1 (configuration not stated) | Percent Effect | -26.82 |
| CCOC1CC2(CCN(C(=O)COC)CC2)c2cc(C)ccc21 (configuration not stated) | Percent Effect | -4.26 |
| Cc1ccc(NC(=O)C(C)N2CCCN(c3nccs3)CC2)c(C)c1 (configuration not stated) | Percent Effect | 58.85 |
| Cc1nccc(-c2cccc(-c3ccn(CC4CCNC4)n3)c2)n1 (configuration not stated) | Percent Effect | -11.22 |
| O=C(N[C@H]1CN(Cc2ccsc2)[C@@H]2CCCO[C@H]12)C1CC1.O=C(O)C(F)(F)F | Percent Effect | 2.811 |
| COCC1N(C(=O)c2ccco2)[C@H]2CC[C@]1(O)CC2 (some centres not stated) | Percent Effect | 16.02 |
| Cc1ccc(C(=O)N2Cc3c(CN(C)C)nn(C)c3C2)cc1C.O=C(O)C(F)(F)F | Percent Effect | -17.18 |
| Cn1ccc(-c2cc(C(=O)N3CCC(O)CC3)c3ccccn23)n1 | Percent Effect | 65.18 |
| Cl.OC1(c2ccc(F)cc2)CCN(Cc2ccccc2N2CCCC2)CC1 | Percent Effect | 3.038 |
| O=C(NC1CC1)c1ccc2ccc(N3CCN(CC4CC4)CC3)n2c1 | Percent Effect | 38.85 |
| COc1ccccc1[C@@H]1CN(Cc2cc(C(C)(C)C)[nH]n2)C[C@H]1C(=O)O | Percent Effect | 79.87 |
| CC(=O)N1CCN(c2ccc3ccc(C(=O)NC4CCCC4)cn23)CC1 | Percent Effect | 69.47 |
| COCCN(C)C1COC2(CCN(Cc3cccc(F)c3)CC2)C1.O=C(O)C(F)(F)F.O=C(O)C(F)(F)F (configuration not stated) | Percent Effect | -38.12 |
| CCOc1ccc(C(=O)N2CCN(c3nccn3C)CC2)cc1.Cl | Percent Effect | -17.36 |
| CCN(CCn1c(=O)oc2ccccc21)CC1CCOCC1 | Percent Effect | 86.99 |
| Cc1cccc(CN(Cc2ccccn2)Cc2ncc(C(C)(C)C)o2)c1 | Percent Effect | 77.52 |
| COc1cc(C#N)ccc1OC12CCCN(CC1)C2 (configuration not stated) | Percent Effect | -7.079 |
| CS(=O)(=O)NC[C@]12COC[C@H]1CN(CC1CCCC1)C2.O=C(O)C(F)(F)F | Percent Effect | -15.72 |
| Cc1cc(CCC2CN(CC3(O)CCCCC3)CCO2)ncn1 (configuration not stated) | Percent Effect | -44.25 |
| CCCc1ccc(OC23CCCN(CC2)C3)c(OC)c1 (configuration not stated) | Percent Effect | 85.22 |
| CC(=O)N1C[C@@H]2CC[C@H](C1)N(S(=O)(=O)c1ccc(C#N)cc1Cl)C2 | Percent Effect | 12.47 |
| O=C(Nc1ccc(Cl)cn1)c1nn(C2CCS(=O)(=O)C2)c2c1CCCC2 (configuration not stated) | Percent Effect | 11.75 |
| Cl.FC(F)(F)c1nc(C2CCNCC2)no1 | Percent Effect | -8.269 |
| COc1ccccc1[C@@H]1CN(Cc2ccc3nsnc3c2)C[C@H]1C(=O)O | Percent Effect | -17.79 |
| Cc1ccc(N2CCO[C@H]3CN(Cc4cnn(C)c4)C[C@H]32)nn1.O=C(O)C(F)(F)F.O=C(O)C(F)(F)F | Percent Effect | 3.052 |
| CC(NCCn1c(=O)oc2ccccc21)c1ccccn1 (configuration not stated) | Percent Effect | 5.47 |
| CCc1cc(C(=O)N2CCCC(Cc3ccc(NC)nn3)C2)on1 (configuration not stated) | Percent Effect | -39.14 |
| O=C(c1cc(-c2ccn(CC3CC3)n2)n2ccccc12)N1CCOCC1 | Percent Effect | 104.4 |
| O=C(N[C@@H]1CN(Cc2c[nH]nc2-c2ccccc2)C[C@H]1O)c1cc[nH]n1 | Percent Effect | 1.707 |
| Cn1cc(CN2CCC[C@]3(C[C@@H](Oc4ccccn4)CO3)C2)cn1.O=C(O)C(F)(F)F.O=C(O)C(F)(F)F | Percent Effect | 27.52 |
| CN(C)C(=O)N1CCN(c2ccc3ccc(C(=O)NC4CC4)cn23)CC1 | Percent Effect | -6.605 |
| Cc1ccsc1-c1cccc(-c2ccn(CC3CCNC3)n2)c1 (configuration not stated) | Percent Effect | 84.67 |
| O=C(NCCOCCO)c1cccnc1Oc1ccc(Cl)cc1 | Percent Effect | 43.92 |
| CCS(=O)(=O)N1CC[C@H]2CO[C@H](CN(C)C)[C@H]2C1.O=C(O)C(F)(F)F | Percent Effect | -39.84 |
| COCCN1CCN(c2ccc3ccc(C(=O)NC4CC4)cn23)CC1 | Percent Effect | -14.38 |
